Target: T1, human BASIGIN recombinant protein (human, UniProt P35613-2 22-205, limits assumed)
T1 construct: also called hBASIGIN
T1 sequence (looked up): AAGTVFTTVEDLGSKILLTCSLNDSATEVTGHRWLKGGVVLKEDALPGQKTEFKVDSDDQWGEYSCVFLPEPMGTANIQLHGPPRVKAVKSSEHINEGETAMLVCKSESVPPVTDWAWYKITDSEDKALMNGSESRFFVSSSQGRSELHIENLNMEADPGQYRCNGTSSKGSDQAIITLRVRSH
Experiment: SPR (ProteOn XPR36), human BASIGIN amine-coupled on chip, antibody as analyte
READOUT_TYPE: koff (s⁻¹)

BINDER | MEASURED
chimeric antibody c6H8 (antibody, V domains shown, Mouse 6H8 variable regions fused to a human constant region of IgG1 isotype; also called chimeric 6H8) VH: EVKLEESGGGLVQPGGSMKLSCVASGFTFSNFWMNWVRQSPEKGLEWVAEIRLKSNNYATHYAESVKGRFTISRDDSKSSVYLQMNNLRTEDTGIYYCTSYDYEYWGQGTLVTVSA VL: NIVMTQSPKSMSMSVGERVTLSCKASENVGTYVSWYQQKPEQSPKLLIYGASNRYTGVPDRFTGSGSATDFTLTISSVQAEDLADYHCGQSYSYPFTFGSGTKLEIK | 5.81e-05

Values compiled from patent US20190270809A1.
